assay: GFP drop in mixed WT/humanized-ribosome E. coli culture – GFP/RFP fluorescence, OD600, single point, bacterial rRNA inhibitor project, primary screen (AID 720706); settings: E. coli WT GFP vs humanized-ribosome RFP mutants, 24 h; stronger effect = lower value, DMSO median 0, no signal -100
The campaign covered roughly 350,000 compounds. About 5,500 (1.6%) were called active. For the sample, actives were picked, then their nearest neighbours and some compounds at random.
# key: entry, value: GFP signal change (wild-type ribosome)
Please state the figure in %; there is no need to write the unit.

| Compound | Reported endpoint | Reported |
| --- | --- | --- |
| C/C=C/c1cnc2c(c1)C(=O)N([C@H](C)CO)C[C@H](C)[C@H](CN(C)C(=O)c1cccc(F)c1)O2 | GFP signal change (wild-type ribosome) | 2.26 |

Supply reported GFP signal change (wild-type ribosome) belonging to this compound: CC(C)(C)[S@@](=O)N1Cc2cc(C(=O)O)nc(-c3cccc(-c4cccc(F)c4)c3)c2[C@H]1CCO 4.83

Supply reported GFP signal change (wild-type ribosome) belonging to this compound: Fc1cccc2ncnc(OCc3ccccc3)c12 -30.9

====

# key: entry, value: RFP signal change
assay: GFP drop in mixed WT/humanized-ribosome E. coli culture – GFP/RFP fluorescence, OD600, single point, bacterial rRNA inhibitor project, primary screen (AID 720706); conditions: E. coli WT GFP vs humanized-ribosome RFP mutants, 24 h; measured here: RFP humanized mutant strains, DMSO median 0, no signal -100, concentration not given here
In all, about 350,000 compounds went through this assay and about 5,500 (1.6%) were called active. What follows is part of a selection rich in actives, with near analogues and random picks from the rest.
Please state the figure in %; there is no need to write the unit.

Supply reported RFP signal change belonging to this compound: Cc1noc(C)c1S(=O)(=O)Nc1ccc2c(c1)C(=O)N([C@H](C)CO)C[C@H](C)[C@H](CN(C)C(=O)CCC(F)(F)F)OCCCC[C@H](C)O2 0.03

Supply reported RFP signal change belonging to this compound: Cc1ccc(S(=O)(=O)N[C@H]2CC[C@@H](CC(=O)NCCCN(C)C)O[C@H]2CO)cc1 -1.14

Supply reported RFP signal change belonging to this compound: O=C(CN1CCCCC1)NC(=O)Nc1ccccc1F 2.38

Supply reported RFP signal change belonging to this compound: Cc1n[nH]c(=O)nc1N/N=C/c1cccs1 3.52

====

test: GFP drop in mixed WT/humanized-ribosome E. coli culture – GFP/RFP fluorescence, OD600, single point, bacterial rRNA inhibitor project, primary screen (AID 720706); conditions: E. coli WT GFP vs humanized-ribosome RFP mutants, 24 h; stronger effect = lower value, DMSO median 0, no signal -100
About 5,500 (1.6%) of roughly 350,000 compounds were called active. The sample holds actives, similar compounds and a random draw of the others, so the mix is not that of the screen.
Reported endpoint: GFP signal change (wild-type ribosome) (%)
Please state the figure in %; there is no need to write the unit.

| Molecule | GFP signal change (wild-type ribosome) (%) |
| --- | --- |
| CCCNC(=O)N1CC2(C1)[C@H](c1ccccc1)[C@@H](CO)N2C(=O)C1CC1 | 2.01 |
| CC(NC(=O)c1ccco1)c1ccc2c(c1)OCO2 (stereo not given) | -0.41 |
| CC(C)(C)NC(=O)NC(=O)COC(=O)Cc1c(F)cccc1Cl | -13.1 |
| O=C(CCc1ccccc1F)N1CCN(c2ccccc2)CC1 | -5.11 |
| CCC(C)(C)NC(=O)/C=C/c1cc(OC)c(OC)c(S(=O)(=O)N2CCc3ccccc32)c1 | 25 |
| COc1ccc(C2=NN(C(=O)c3cccnc3)C(c3ccccc3)C2)cc1 (stereo not given) | -23.4 |
| COc1ccc(N2CCN(C(=O)CCNC(=O)c3ccc(Br)cc3)CC2)cc1 | 4.67 |
| CCNC(=O)[C@H]1[C@H](CO)[C@H]2Cn3c(ccc(C4=CCCC4)c3=O)[C@@H]1N2S(=O)(=O)c1cn(C)cn1 | 2.88 |

Supply reported GFP signal change (wild-type ribosome) belonging to this molecule: CC(C)(C)NC(=O)NC(=O)COC(=O)Cc1ccc(Cl)cc1Cl -19.2

Supply reported GFP signal change (wild-type ribosome) belonging to this molecule: O=C(COC(=O)Cc1ccc(Cl)cc1Cl)NCc1ccco1 -17.4

Supply reported GFP signal change (wild-type ribosome) belonging to this molecule: COc1ccc(CC2(CO)CCN(Cc3cnn(C)c3)CC2)cc1 25.9

Supply reported GFP signal change (wild-type ribosome) belonging to this molecule: CN1C(=O)c2cc(NC(=O)C3CCC3)ccc2OC[C@@H]2O[C@@H](CC(=O)NCCc3ccncc3)CC[C@H]21 5.03

Supply reported GFP signal change (wild-type ribosome) belonging to this molecule: COc1ccc(C2=NN(C(=O)c3ccccc3C(=O)O)C(c3ccccc3O)C2)cc1 (stereo not given) -9.01

Supply reported GFP signal change (wild-type ribosome) belonging to this molecule: CC1(C(=O)NCc2ccco2)Cc2c(-c3ccc4c(c3)OCO4)ccnc2O1 (stereo not given) 10.2

Supply reported GFP signal change (wild-type ribosome) belonging to this molecule: O=S(=O)(Cc1ccccc1)NCC[C@@H]1CC[C@@H](NS(=O)(=O)c2ccccc2)[C@@H](CO)O1 -0.181

Supply reported GFP signal change (wild-type ribosome) belonging to this molecule: CCOc1ccccc1NC(=O)C1CCN(S(=O)(=O)c2c(C)nn(C)c2C)CC1 3.06

====

# key: entry, value: OD600 change
assay: GFP drop in mixed WT/humanized-ribosome E. coli culture – GFP/RFP fluorescence, OD600, single point, bacterial rRNA inhibitor project, primary screen (AID 720706); details: E. coli WT GFP vs humanized-ribosome RFP mutants, 24 h; measured here: OD600 growth, DMSO median 0, no signal -100
Hit rate of the full screen: of about 350,000 compounds, about 5,500 (1.6%) were called active. Many of the other results were omitted from the sample, so actives are more common in it than they were.
Please state the figure in %; there is no need to write the unit.

Look over these answered cases.
| Compound | OD600 change (%) |
| --- | --- |
| COc1ccccc1-c1cnc2c(c1)C(=O)N([C@@H](C)CO)C[C@H](C)[C@@H](CN(C)C(C)=O)O2 | 4.33 |
| Cn1nc(-c2ccc(Cl)cc2)c2cc(C(=O)NCc3ccco3)sc21 | -25.9 |
| C=CCC1(C#N)C(=S)NC(C)=C(C(=O)OCC)C1c1ccccc1 (centres undefined) | -19.2 |
| COc1ccccc1S(=O)(=O)N[C@@H]1CC[C@H](CCn2cc(C3CCCC3)nn2)O[C@H]1CO | 3.92 |
| CN[C@H]1C[C@H]2c3[nH]c4c(-c5ccccc5)cccc4c3CCN2C(=O)[C@H]1[C@H](C)O | -70.1 |
| COCC(=O)N1CC(=O)N2[C@H](C1)[C@H](c1ccc(C#CC3CCCCC3)cc1)[C@@H]2CO | 2.33 |
| O=C1CN(S(=O)(=O)Cc2ccccc2)C[C@@H]2[C@@H](c3ccc(C#Cc4cccc(F)c4)cc3)[C@@H](CO)N12 | -36.6 |
| CCOC(=O)C1=C(c2ccccc2)NC(=S)NC1c1ccc(Cl)cc1 (centres undefined) | -7.99 |
| COC(=O)c1cc2c(N)c(C(=O)c3ccc(Cl)cc3)sc2nc1C(OC)OC | 8.88 |
| CCN(CC)C(=O)c1nc[nH]c1C(=O)N(C)Cc1ccccc1 | 17.4 |

Supply reported OD600 change belonging to this compound: COc1ccccc1NC(=O)N[C@H]1CC[C@@H](CCn2cc(C3(O)CCCC3)nn2)O[C@@H]1CO 0.829

Supply reported OD600 change belonging to this compound: CCOC(=O)C(C)n1nc(-c2ccccc2)c2ccccc2c1=O (centres undefined) 4.27

Supply reported OD600 change belonging to this compound: Cc1noc(C)c1S(=O)(=O)Nc1ccc2c(c1)C(=O)N([C@@H](C)CO)C[C@@H](C)[C@@H](CN(C)C)O2 -2.97

Supply reported OD600 change belonging to this compound: CCOc1ccccc1NC(=O)C1CCN(S(=O)(=O)c2c(C)nn(C)c2C)CC1 -0.4

Supply reported OD600 change belonging to this compound: CNC(=O)C[C@H]1CC[C@H]2[C@H](COc3ccc(NC(=O)Nc4ccc(F)cc4)cc3C(=O)N2C)O1 1.94

Supply reported OD600 change belonging to this compound: CCN(CC)C(=O)c1sc2nc(-c3ccccc3)ccc2c1N -3.66

Supply reported OD600 change belonging to this compound: Cc1ccc2c(N)c(C(=O)c3ccccc3)sc2n1 -0.632

Supply reported OD600 change belonging to this compound: CCC(=O)Nc1ccc2c(c1)OC[C@H](C)N(Cc1ccccc1OC)C[C@@H](C)[C@@H](OC)CN(C)C2=O 4.08

Supply reported OD600 change belonging to this compound: CCCNC(=O)N1[C@H](CO)[C@@H](c2ccc(-c3ccc(C(=O)N(C)C)cc3)cc2)[C@@H]1C#N 16.3
